Answer each item with its documented IC50.
TEST SYSTEM: Epidermal growth factor receptor (Homo sapiens, UniProt P00533, L858R/T790M)
Sequence (P00533 25-1210 T790M/L858R limits assumed): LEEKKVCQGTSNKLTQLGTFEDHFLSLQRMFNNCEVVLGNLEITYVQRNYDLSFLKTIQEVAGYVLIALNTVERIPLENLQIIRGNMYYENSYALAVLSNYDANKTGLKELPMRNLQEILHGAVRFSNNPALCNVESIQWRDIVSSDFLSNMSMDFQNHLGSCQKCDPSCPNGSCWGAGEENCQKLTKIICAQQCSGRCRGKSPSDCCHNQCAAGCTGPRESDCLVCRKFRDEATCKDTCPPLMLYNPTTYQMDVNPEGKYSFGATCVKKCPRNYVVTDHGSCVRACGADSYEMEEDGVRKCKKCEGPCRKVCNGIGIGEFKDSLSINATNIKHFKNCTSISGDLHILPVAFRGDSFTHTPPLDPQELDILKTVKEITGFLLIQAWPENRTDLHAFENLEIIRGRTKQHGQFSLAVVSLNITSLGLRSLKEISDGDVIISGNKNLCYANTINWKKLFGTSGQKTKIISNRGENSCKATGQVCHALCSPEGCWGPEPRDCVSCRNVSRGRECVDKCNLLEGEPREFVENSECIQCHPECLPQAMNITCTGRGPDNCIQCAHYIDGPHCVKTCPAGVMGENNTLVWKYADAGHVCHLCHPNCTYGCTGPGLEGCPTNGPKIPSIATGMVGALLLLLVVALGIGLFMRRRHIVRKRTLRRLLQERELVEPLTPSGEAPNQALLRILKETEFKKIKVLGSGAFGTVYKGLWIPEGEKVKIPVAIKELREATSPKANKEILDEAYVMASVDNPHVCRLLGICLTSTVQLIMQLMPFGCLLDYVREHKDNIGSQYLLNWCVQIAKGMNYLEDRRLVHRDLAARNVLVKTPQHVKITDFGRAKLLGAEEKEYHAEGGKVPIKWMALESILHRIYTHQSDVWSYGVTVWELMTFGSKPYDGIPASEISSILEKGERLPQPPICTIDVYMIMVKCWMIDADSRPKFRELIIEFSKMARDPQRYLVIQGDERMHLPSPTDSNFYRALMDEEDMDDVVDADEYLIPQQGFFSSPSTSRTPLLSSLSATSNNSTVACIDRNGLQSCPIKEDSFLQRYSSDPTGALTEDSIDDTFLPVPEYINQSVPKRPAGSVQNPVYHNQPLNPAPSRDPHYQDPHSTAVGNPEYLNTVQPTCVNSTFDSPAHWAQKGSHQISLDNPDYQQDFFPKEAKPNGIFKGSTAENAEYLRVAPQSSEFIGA
TEST DETAILS: Inhibition of EGFR L858R/T790M mutant (unknown origin) incubated for 35 mins by HTRF KinEASE-TK assay
Dear colleague, please return just the value in nM, with no unit written.

Inquiry: Would you mind telling me what IC50 value was observed for C=CC(=O)Nc1cccc(Nc2nc(Nc3ccc(N4CCN(CC(=O)NCCNc5cccc6c5CN(C5CCC(=O)NC5=O)C6=O)CC4)cc3OC)ncc2C(F)(F)F)c1 (configuration not stated) ?
Reply text: 965

Inquiry: Follow-up entry: C=CC(=O)Nc1cccc(Nc2nc(Nc3ccc(N4CCN(CCOCCNc5cccc6c5C(=O)N(C5CCC(=O)NC5=O)C6=O)CC4)cc3OC)ncc2C(F)(F)F)c1 (configuration not stated)
Reply text: 24.1

Inquiry: Now this one: C=CC(=O)Nc1cccc(Nc2nc(Nc3ccc(N4CCN(C(=O)CCCC(=O)Nc5cccc6c5C(=O)N(C5CCC(=O)NC5=O)C6=O)CC4)cc3OC)ncc2C(F)(F)F)c1 (configuration not stated)
Reply text: 33

Inquiry: Please do the same for C=CC(=O)Nc1cccc(Nc2nc(Nc3ccc(N4CCN(CC(=O)NCCNc5cccc6c5C(=O)N(C5CCC(=O)NC5=O)C6=O)CC4)cc3OC)ncc2C(F)(F)F)c1 (configuration not stated) as well.
Reply text: 43.1

Inquiry: Please do the same for C=CC(=O)Nc1cccc(Nc2nc(Nc3ccc(N4CCN(C(=O)CCCCNc5cccc6c5C(=O)N(C5CCC(=O)NC5=O)C6=O)CC4)cc3OC)ncc2C(F)(F)F)c1 (configuration not stated) as well.
Reply text: 121

Inquiry: What about this compound? C=CC(=O)Nc1cccc(Nc2nc(Nc3ccc(N4CCN(C(=O)CCCCCC(=O)Nc5cccc6c5C(=O)N(C5CCC(=O)NC5=O)C6=O)CC4)cc3OC)ncc2C(F)(F)F)c1 (configuration not stated)
Reply text: 20.3

Inquiry: Then C=CC(=O)Nc1cccc(Nc2nc(Nc3ccc(N4CCN(CC(=O)NCCNc5cccc6c5C(=O)N(C5CCC(=O)N(C)C5=O)C6=O)CC4)cc3OC)ncc2C(F)(F)F)c1 (configuration not stated) ?
Reply text: 134

====

Organism: Homo sapiens
TEST DETAILS: Selectivity index, ratio of IC50 for wild type EGFR (unknown origin) to IC50 for Protein cereblon/Epidermal growth factor receptor L858R/T790M mutant
RECORDED METRIC: Ratio IC50
Answer using only a numeral; do not append any unit.

Inquiry: Recorded Ratio IC50 of C=CC(=O)Nc1cccc(Nc2nc(Nc3ccc(N4CCN(CC(=O)NCCNc5cccc6c5C(=O)N(C5CCC(=O)NC5=O)C6=O)CC4)cc3OC)ncc2C(F)(F)F)c1 (configuration not stated) , please.
Reply text: 19

Inquiry: Moving on to C=CC(=O)Nc1cccc(Nc2nc(Nc3ccc(N4CCN(C(=O)CCCC(=O)Nc5cccc6c5C(=O)N(C5CCC(=O)NC5=O)C6=O)CC4)cc3OC)ncc2C(F)(F)F)c1 (configuration not stated)
Reply text: 98

Inquiry: Queued: C=CC(=O)Nc1cccc(Nc2nc(Nc3ccc(N4CCN(CCOCCNc5cccc6c5C(=O)N(C5CCC(=O)NC5=O)C6=O)CC4)cc3OC)ncc2C(F)(F)F)c1 (configuration not stated)
Reply text: 15

Inquiry: Same lookup for C=CC(=O)Nc1cccc(Nc2nc(Nc3ccc(N4CCN(C(=O)CCCCNc5cccc6c5C(=O)N(C5CCC(=O)NC5=O)C6=O)CC4)cc3OC)ncc2C(F)(F)F)c1 (configuration not stated) , please.
Reply text: 5

Inquiry: Do the same for C=CC(=O)Nc1cccc(Nc2nc(Nc3ccc(N4CCN(CC(=O)NCCNc5cccc6c5C(=O)N(C5CCC(=O)N(C)C5=O)C6=O)CC4)cc3OC)ncc2C(F)(F)F)c1 (configuration not stated) please
Reply text: 11

Inquiry: Queued: C=CC(=O)Nc1cccc(Nc2nc(Nc3ccc(N4CCN(C(=O)CCCCCC(=O)Nc5cccc6c5C(=O)N(C5CCC(=O)NC5=O)C6=O)CC4)cc3OC)ncc2C(F)(F)F)c1 (configuration not stated)
Reply text: 32

Inquiry: How about C=CC(=O)Nc1cccc(Nc2nc(Nc3ccc(N4CCN(CC(=O)NCCNc5cccc6c5CN(C5CCC(=O)NC5=O)C6=O)CC4)cc3OC)ncc2C(F)(F)F)c1 (configuration not stated) ?
Reply text: 2.5

====

Tested on: PC-9
TEST DETAILS: Anti-proliferative activity against human PC-9 cells assessed as reduction in cell proliferation incubated for 72 hrs by MTT assay
Assay type: functional, cell-based
CONDITION DETAILS: PC-9, 72 h
RECORDED METRIC: IC50 (nM)
Kindly provide the numeric value in nM only, without the unit symbol.

Inquiry: Using the record for C=CC(=O)Nc1cccc(Nc2nc(Nc3ccc(N4CCN(CC(=O)NCCNc5cccc6c5C(=O)N(C5CCC(=O)NC5=O)C6=O)CC4)cc3OC)ncc2C(F)(F)F)c1 (stereo not drawn) , report its IC50.
Reply text: 750

Inquiry: C=CC(=O)Nc1cccc(Nc2nc(Nc3ccc(N4CCN(C(=O)CCCCCCCC(=O)Nc5cccc6c5C(=O)N(C5CCC(=O)NC5=O)C6=O)CC4)cc3OC)ncc2C(F)(F)F)c1 (stereo not drawn) ?
Reply text: 5310

Inquiry: Here is the next molecule: C=CC(=O)Nc1cccc(Nc2nc(Nc3ccc(N4CCN(C(=O)CCCCCC(=O)Nc5cccc6c5C(=O)N(C5CCC(=O)NC5=O)C6=O)CC4)cc3OC)ncc2C(F)(F)F)c1 (stereo not drawn)
Reply text: 900

====

Kindly supply the reported IC50 values for the records listed here.
Tested on: PC-9
TEST DETAILS: Anti-proliferative activity against human PC-9 cells assessed as reduction in cell proliferation incubated for 72 hrs by MTT assay
Assay type: functional, cell-based
CONDITION DETAILS: PC-9, 72 h
Param answer (str): number followed by unit.

Inquiry: Return reported IC50; argument: C=CC(=O)Nc1cccc(Nc2nc(Nc3ccc(N4CCN(CC(=O)NCCNc5cccc6c5C(=O)N(C5CCC(=O)N(C)C5=O)C6=O)CC4)cc3OC)ncc2C(F)(F)F)c1 (stereo not given)
Reply text: 1.89 µM

Inquiry: How about C=CC(=O)Nc1cccc(Nc2nc(Nc3ccc(N4CCN(CC(=O)NCCNc5cccc6c5CN(C5CCC(=O)NC5=O)C6=O)CC4)cc3OC)ncc2C(F)(F)F)c1 (stereo not given) ?
Reply text: 4.86 µM

Inquiry: One more compound: C=CC(=O)Nc1cccc(Nc2nc(Nc3ccc(N4CCN(CC(=O)NCCCCCCNC(=O)CNc5cccc6c5C(=O)N(C5CCC(=O)NC5=O)C6=O)CC4)cc3OC)ncc2C(F)(F)F)c1 (stereo not given)
Reply text: 6.61 µM

Inquiry: Now consider C=CC(=O)Nc1cccc(Nc2nc(Nc3ccc(N4CCN(C(=O)CCCCCCCCCCCC(=O)Nc5cccc6c5C(=O)N(C5CCC(=O)NC5=O)C6=O)CC4)cc3OC)ncc2C(F)(F)F)c1 (stereo not given) .
Reply text: 18.1 µM

Inquiry: Consider next the compound C=CC(=O)Nc1cccc(Nc2nc(Nc3ccc(N4CCN(CC(=O)NCCNC(=O)CNc5cccc6c5C(=O)N(C5CCC(=O)NC5=O)C6=O)CC4)cc3OC)ncc2C(F)(F)F)c1 (stereo not given) in the same way.
Reply text: 13.4 µM

====

Task for the reader: assign each of the following compounds its reported pIC50.
Tested on: PC-9
TEST DETAILS: Anti-proliferative activity against human PC-9 cells assessed as reduction in cell proliferation incubated for 72 hrs by MTT assay
Format: functional, cell-based
CONDITION DETAILS: PC-9, 72 h
Convention used: pIC50 is expressed as -log10 of the molar concentration.

Inquiry: If you can, please state the reported pIC50 value of C=CC(=O)Nc1cccc(Nc2nc(Nc3ccc(N4CCN(C(=O)CCCCNc5cccc6c5C(=O)N(C5CCC(=O)NC5=O)C6=O)CC4)cc3OC)ncc2C(F)(F)F)c1 (stereo not drawn) .
Reply text: 5.17

Inquiry: Follow-up entry: C=CC(=O)Nc1cccc(Nc2nc(Nc3ccc(N4CCN(C(C)=O)CC4)cc3OC)ncc2C(F)(F)F)c1 [ROCILETINIB]
Reply text: 6.57

Inquiry: // same read-out, input: C=CC(=O)Nc1cccc(Nc2nc(Nc3ccc(N4CCN(CC(=O)NCCOc5cccc6c5C(=O)N(C5CCC(=O)NC5=O)C6=O)CC4)cc3OC)ncc2C(F)(F)F)c1 (stereo not drawn)
Reply text: 5.13
